IC50 for assorted molecules
test-system: influenza RNA polymerase (Influenza A virus)
Sequence (P03431 whole entry, looked up): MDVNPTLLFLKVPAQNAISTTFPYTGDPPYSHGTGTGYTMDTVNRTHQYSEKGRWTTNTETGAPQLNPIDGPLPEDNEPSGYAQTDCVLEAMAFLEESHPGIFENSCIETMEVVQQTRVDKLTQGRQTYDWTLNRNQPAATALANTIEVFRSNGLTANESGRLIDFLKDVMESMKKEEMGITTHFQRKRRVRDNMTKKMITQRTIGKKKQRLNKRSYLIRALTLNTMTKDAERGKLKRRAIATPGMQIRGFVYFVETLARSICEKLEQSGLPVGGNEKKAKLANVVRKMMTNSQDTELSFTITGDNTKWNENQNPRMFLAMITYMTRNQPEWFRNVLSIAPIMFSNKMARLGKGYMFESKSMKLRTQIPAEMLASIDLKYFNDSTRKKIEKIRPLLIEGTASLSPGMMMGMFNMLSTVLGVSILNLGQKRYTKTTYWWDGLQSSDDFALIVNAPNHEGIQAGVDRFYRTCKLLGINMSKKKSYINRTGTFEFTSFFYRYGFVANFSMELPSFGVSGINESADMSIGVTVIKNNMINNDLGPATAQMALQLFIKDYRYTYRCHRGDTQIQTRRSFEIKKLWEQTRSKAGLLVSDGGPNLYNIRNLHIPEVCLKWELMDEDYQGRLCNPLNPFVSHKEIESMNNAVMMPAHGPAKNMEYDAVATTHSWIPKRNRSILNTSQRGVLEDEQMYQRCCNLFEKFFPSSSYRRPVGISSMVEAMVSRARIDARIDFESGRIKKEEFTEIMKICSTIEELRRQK
test-protocol: Influenza polymerase assay (radiolabeled nucleotide incorporation)
Assay type: biochemical
measurement-setup: nucleotide triphosphates in influenza polymerase assay

# sample-smiles, IC50
rows = [
    ("O=c1ccn([C@@H]2O[C@@](COP(=O)(O)OP(=O)(O)OP(=O)(O)O)(C(F)F)[C@@H](O)[C@H]2O)c(=O)[nH]1", "10 to 100 µM"),
    ("Nc1ncnc2ncn([C@@H]3O[C@@](COP(=O)(O)OP(=O)(O)OP(=O)(O)O)(C(F)F)[C@@H](O)[C@H]3O)c12", "< 10 µM"),
    ("O=c1[nH]c(=O)n([C@@H]2O[C@@](COP(=O)(O)OP(=O)(O)OP(=O)(O)O)(C(F)F)[C@@H](O)[C@H]2O)cc1F", "10 to 100 µM"),
    ("O=c1[nH]c(=O)n([C@@H]2O[C@@](COP(=O)(O)OP(=O)(O)OP(=O)(O)O)(C(F)F)[C@@H](O)[C@H]2O)cc1Cl", "10 to 100 µM"),
]

Just for reference, patent US9370569B2 is where these values come from.
